- Experiment Notes: in vitro
- Particulars: human, Cell viability of HepG2 cells treated with the toxicant alone
Measured Property: viability (%)
# unit: % | format: bare number

### Prompt // lookup viability for CO[C@H]1/C=C/O[C@@]2(C)Oc3c(C)c(O)c4c(O)c(c(/C=N/N5CCN(C)CC5)c(O)c4c3C2=O)NC(=O)/C(C)=C\C=C\[C@H](C)[C@H](O)[C@@H](C)[C@@H](O)[C@@H](C)[C@H](OC(C)=O)[C@@H]1C [Rif (+ve con), rifampicin, reference compound]
### Response 65

----------
- Tested on: Mycobacterium smegmatis (ATCC 1441)
- Experiment Notes: microbe, parasite or virus in culture
- Assay type: cell-based
- Particulars: Mycolicibacterium smegmatis, ATCC1441, 24 h, read-out: MIC M. smegmatis
Measured Property: MIC

[
  {
    "Molecule": "COc1ccc(C2CC(=O)c3c(OC)cc(OC)cc3O2)cc1 (stereo not shown)",
    "Tgt": "Mycobacterium smegmatis (ATCC 1441)",
    "MIC": "63 µg/mL"
  },
  {
    "Molecule": "CO[C@H]1/C=C/O[C@@]2(C)Oc3c(C)c(O)c4c(O)c(c(/C=N/N5CCN(C)CC5)c(O)c4c3C2=O)NC(=O)/C(C)=C\\C=C\\[C@H](C)[C@H](O)[C@@H](C)[C@@H](O)[C@@H](C)[C@H](OC(C)=O)[C@@H]1C [Rif (+ve con), rifampicin, reference compound]",
    "Tgt": "Mycobacterium smegmatis (ATCC 1441)",
    "MIC": "3.9 µg/mL"
  }
]

### Prompt // lookup MIC for COc1ccc(-c2oc3cc(OC)cc(O)c3c(=O)c2OC)cc1 [5‑hydroxy-3,7,4′-trimethoxyflavone]
### Response 63 µg/mL

### Prompt // lookup MIC for [H]/N=C(/N)N[C@H]1[C@H](O)[C@@H](O)[C@H](O[C@@H]2O[C@@H](C)[C@](O)(C=O)[C@H]2O[C@@H]2O[C@@H](CO)[C@H](O)[C@@H](O)[C@@H]2NC)[C@@H](N/C(N)=N\[H])[C@@H]1O [Strep (+ve con), streptomycin, reference compound]
### Response 3.9 µg/mL
